Reported viability, T/C is given for each of the following molecules.
- Test system: 945468-187-T-J2-PDC spheroids viability
- Assay Info: Anticancer human tumor 945468-187-T-J2-PDC patient-derived rectal carcinoma cell line growth inhibition [PI3K]
- Experimental Parameters: second compound 0.0316 µM; first compound 1 µM; stronger effect = lower value; spheroids with HUVEC and MSC
- Source text: Combinatorial screen of targeted agents with the PI3K inhibitors inavolisib, alpelisib, duvelisib, and copanlisib in multi-cell type tumor spheroids A high-throughput screen of multi-cell type tumor spheroids was designed to identify active combinations of targeted small molecules and PI3K pathway inhibitors. […] Compounds. […] If the clinical Cmax for an agent had not been determined, the highest concentration tested was 10 microM. […]

Example cases with answers are listed next.
Molecule: C[C@@H](NC(=O)c1ncnc(N)c1Cl)c1ncc(C(=O)Nc2cc(C(F)(F)F)c(Cl)cn2)s1 + CC(Nc1ccc2c(c1)OCCn1cc(N3C(=O)OCC3C(F)F)nc1-2)C(N)=O
viability, T/C: 103%

Molecule: Cn1ncc(Cl)c1-c1cc(C(=O)NC(CN)Cc2cccc(F)c2)sc1Cl (stereo not drawn) + CC(Nc1ncnc2nc[nH]c12)c1cc2cccc(Cl)c2c(=O)n1-c1ccccc1
viability, T/C: 91.5%

Please find the next molecule below.
Q. May I ask what viability, T/C has been recorded for CC1(C)CCC(Nc2ncc(C(F)(F)F)c(-c3c[nH]c4c(P(C)(C)=O)c(C#N)ccc34)n2)CN1 (stereo not drawn) + COc1c(OCCCN2CCOCC2)ccc2c3n(c(=NC(=O)c4cnc(N)nc4)nc12)CCN3 ?
A. 38.9%

* * *

- System: 945468-187-T-J2-PDC spheroids viability
- Assay Info: Anticancer human tumor 945468-187-T-J2-PDC cell line growth inhibition [PI3K];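 further: spheroids exposed to compounds for seven days before reading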
- Experimental Parameters: second compound 0.1 µM; first compound 3.16 µM; stronger effect = lower value; spheroids with HUVEC and MSC
Reported viability, T/C is given for each of the following compounds.

Compound: C[C@@H](NC(=O)c1ncnc(N)c1Cl)c1ncc(C(=O)Nc2cc(C(F)(F)F)c(Cl)cn2)s1 + Cc1nc(NC(=O)N2CCCC2C(N)=O)sc1-c1ccnc(C(C)(C)C(F)(F)F)c1
Tested System: 945468-187-T-J2-PDC spheroids viability
viability, T/C: 105%

Compound: C#Cc1c(F)ccc2cc(O)cc(-c3ncc4c(N5CC6CCC(C5)N6)nc(OCC56CCCN5CC(F)C6)nc4c3F)c12 (stereo not given) + COc1c(OCCCN2CCOCC2)ccc2c3n(c(=NC(=O)c4cnc(N)nc4)nc12)CCN3
Tested System: 945468-187-T-J2-PDC spheroids viability
viability, T/C: 83.4%

Compound: CCCS(=O)(=O)Nc1ccc(F)c(C(=O)c2c[nH]c3ncc(-c4ccc(Cl)cc4)cc23)c1F + CC(Nc1ncnc2nc[nH]c12)c1cc2cccc(Cl)c2c(=O)n1-c1ccccc1
Tested System: 945468-187-T-J2-PDC spheroids viability
viability, T/C: 83.8%

Compound: CC(C)NCC(C(=O)N1CCN(c2ncnc3c2C(C)CC3O)CC1)c1ccc(Cl)cc1 (stereo not given) + CC(Nc1ncnc2nc[nH]c12)c1cc2cccc(Cl)c2c(=O)n1-c1ccccc1
Tested System: 945468-187-T-J2-PDC spheroids viability
viability, T/C: 89.7%

Please find the next compound below.
Q. May I ask what viability, T/C has been recorded for CC1(C)CCC(CN2CCN(c3ccc(C(=O)NS(=O)(=O)c4ccc(NCC5CCOCC5)c([N+](=O)[O-])c4)c(Oc4cnc5[nH]ccc5c4)c3)CC2)=C(c2ccc(Cl)cc2)C1 + CC(Nc1ccc2c(c1)OCCn1cc(N3C(=O)OCC3C(F)F)nc1-2)C(N)=O ?
A. 98.6%

* * *

- Tested on: 945468-187-T-J2-PDC spheroids viability
- Assay Info: Anticancer human tumor 945468-187-T-J2-PDC cell line growth inhibition [PI3K];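 further: spheroids exposed to compounds for seven days before reading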
- Experimental Parameters: second compound 0.0316 µM; first compound 10 µM; stronger effect = lower value; spheroids with HUVEC and MSC
// returns Condition not met unless viability, T/C is strictly below 80%, in which case Condition met

Take a look at these entries with their results.
Molecule: CC1(C)CCC(Nc2ncc(C(F)(F)F)c(-c3c[nH]c4c(P(C)(C)=O)c(C#N)ccc34)n2)CN1 (stereo not given) + COc1c(OCCCN2CCOCC2)ccc2c3n(c(=NC(=O)c4cnc(N)nc4)nc12)CCN3
Label: Condition met
--
Molecule: CC1(C)CCC(Nc2ncc(C(F)(F)F)c(-c3c[nH]c4c(P(C)(C)=O)c(C#N)ccc34)n2)CN1 (stereo not given) + CC(Nc1ncnc2nc[nH]c12)c1cc2cccc(Cl)c2c(=O)n1-c1ccccc1
Label: Condition met
--
Molecule: CCCS(=O)(=O)Nc1ccc(F)c(C(=O)c2c[nH]c3ncc(-c4ccc(Cl)cc4)cc23)c1F + COc1c(OCCCN2CCOCC2)ccc2c3n(c(=NC(=O)c4cnc(N)nc4)nc12)CCN3
Label: Condition met

Now consider a different molecule.
Q. Does this molecule meet the criterion viability, T/C < 80%? CNC(=O)c1ccc(N2C(=S)N(c3ccc(C#N)c(C(F)(F)F)c3)C(=O)C2(C)C)cc1F + Cc1nc(NC(=O)N2CCCC2C(N)=O)sc1-c1ccnc(C(C)(C)C(F)(F)F)c1
A. Condition not met

* * *

- Tested on: 945468-187-T-J2-PDC spheroids viability
- Assay Info: Anticancer human tumor 945468-187-T-J2-PDC cell line growth inhibition [PI3K];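 further: spheroids exposed to compounds for seven days before reading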
- Experimental Parameters: curve of first compound; second compound 0.1 µM; spheroids with HUVEC and MSC
Property: IC50

Example cases with answers are listed next.
Compound: CC(Cn1ccc(-c2ccc(C#N)c(Cl)c2)n1)NC(=O)c1cc(C(C)O)[nH]n1 (stereo unspecified) + CC(Nc1ncnc2nc[nH]c12)c1cc2cccc(Cl)c2c(=O)n1-c1ccccc1
Test Value: > 10 µM

Compound: CC1(C)CCC(CN2CCN(c3ccc(C(=O)NS(=O)(=O)c4ccc(NCC5CCOCC5)c([N+](=O)[O-])c4)c(Oc4cnc5[nH]ccc5c4)c3)CC2)=C(c2ccc(Cl)cc2)C1 + Cc1nc(NC(=O)N2CCCC2C(N)=O)sc1-c1ccnc(C(C)(C)C(F)(F)F)c1
Test Value: > 10 µM

Compound: Cn1nccc1Nc1nccc(-c2ccn(C(CO)c3ccc(Cl)c(F)c3)c(=O)c2)n1 (stereo unspecified) + Cc1nc(NC(=O)N2CCCC2C(N)=O)sc1-c1ccnc(C(C)(C)C(F)(F)F)c1
Test Value: > 10 µM

Compound: Cn1cnc2c(F)c(Nc3ccc(Br)cc3Cl)c(C(=O)NOCCO)cc21 + CC(Nc1ccc2c(c1)OCCn1cc(N3C(=O)OCC3C(F)F)nc1-2)C(N)=O
Test Value: > 3 µM

Compound: CCN1CCN(Cc2ccc(Nc3ncc(F)c(-c4cc(F)c5nc(C)n(C(C)C)c5c4)n3)nc2)CC1 + CC(Nc1ccc2c(c1)OCCn1cc(N3C(=O)OCC3C(F)F)nc1-2)C(N)=O
Test Value: > 1 µM

Q. Item Cn1ncc(Cl)c1-c1cc(C(=O)NC(CN)Cc2cccc(F)c2)sc1Cl (stereo unspecified) + CC(Nc1ccc2c(c1)OCCn1cc(N3C(=O)OCC3C(F)F)nc1-2)C(N)=O with 945468-187-T-J2-PDC spheroids viability - IC50?
A. > 10 µM

* * *

- System: 945468-187-T-J2-PDC spheroids viability
- Assay Info: Anticancer human tumor 945468-187-T-J2-PDC cell line growth inhibition [PI3K];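 further: spheroids exposed to compounds for seven days before reading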
- Experimental Parameters: second compound 0.0316 µM; first compound 0.0316 µM; stronger effect = lower value; spheroids with HUVEC and MSC
Property: viability, T/C (%)
Reply numerically in %, unit not repeated.

Example cases with answers are listed next.
Molecule: CNC(=O)c1ccc(N2C(=S)N(c3ccc(C#N)c(C(F)(F)F)c3)C(=O)C2(C)C)cc1F + COc1c(OCCCN2CCOCC2)ccc2c3n(c(=NC(=O)c4cnc(N)nc4)nc12)CCN3
Test Value: 87.8
--
Molecule: C=CC(=O)N1CCN(c2nc(=O)n(-c3c(C)ccnc3C(C)C)c3nc(-c4c(O)cccc4F)c(F)cc23)C(C)C1 (stereo not given) + COc1c(OCCCN2CCOCC2)ccc2c3n(c(=NC(=O)c4cnc(N)nc4)nc12)CCN3
Test Value: 90.6
--
Molecule: CCN1CCN(Cc2ccc(Nc3ncc(F)c(-c4cc(F)c5nc(C)n(C(C)C)c5c4)n3)nc2)CC1 + CC(Nc1ncnc2nc[nH]c12)c1cc2cccc(Cl)c2c(=O)n1-c1ccccc1
Test Value: 98.8
--
Molecule: CNC(=O)c1ccc(N2C(=S)N(c3ccc(C#N)c(C(F)(F)F)c3)C(=O)C2(C)C)cc1F + CC(Nc1ncnc2nc[nH]c12)c1cc2cccc(Cl)c2c(=O)n1-c1ccccc1
Test Value: 111

Q. May I ask what viability, T/C has been recorded for C=CC(=O)N1CCN(c2nc(=O)n(-c3c(C)ccnc3C(C)C)c3nc(-c4c(O)cccc4F)c(F)cc23)C(C)C1 (stereo not given) + Cc1nc(NC(=O)N2CCCC2C(N)=O)sc1-c1ccnc(C(C)(C)C(F)(F)F)c1 ?
A. 102
